All figures here come from patent US20250296995A1.

Exercise: for every item that follows, state its recorded kon.
- Test target: T1, recombinant Plasmodium falciparum circumsporozoite protein (CSP) (Plasmodium falciparum, UniProt Q7K740 21-375)
- T1 construct: also called recombinant CSP
- T1 sequence (Q7K740 21-375 limits assumed): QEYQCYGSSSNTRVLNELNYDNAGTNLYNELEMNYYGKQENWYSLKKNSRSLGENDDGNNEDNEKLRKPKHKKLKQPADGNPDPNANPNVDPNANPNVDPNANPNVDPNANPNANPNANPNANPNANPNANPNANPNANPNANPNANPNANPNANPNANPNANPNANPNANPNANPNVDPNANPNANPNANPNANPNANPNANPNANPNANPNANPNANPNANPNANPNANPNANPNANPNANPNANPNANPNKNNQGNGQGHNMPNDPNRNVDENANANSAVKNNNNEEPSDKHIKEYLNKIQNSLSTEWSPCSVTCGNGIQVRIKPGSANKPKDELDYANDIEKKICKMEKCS
- Protocol: SPR, recombinant CSP
Numbers only, in M⁻¹ s⁻¹.

# count of solved cases: 2
AB001396 (antibody, V domains shown) VH: QVQLVESGGGVVQPGRSLRLSCAASGFTFSSYGMHWVRQAPGKGLEWVAIIWYDGSHKYYADSVKGRFTISRDNSKNTLYLQMNSLRAEDTAVYHCARVYQPTYYYDSSRGEAFDIWGQGTMVTVSS VL: DIQMTQSPSTLSASVGDRVTITCRASQSISSWLAWYQQKPGKAPKLLIYKASNLGSGVPSRFSGSGSGTEFTLTISSLQPDDFATYYCQQYNSYWTFGQGTKVEIK ... 268000
AB-000325 (antibody, V domains shown) VH: QVQLVESGGGVVQPGRSLRLSCAASRFPFKNYGMHWVRQAPGKGLEWVALIWFDGSNKFYVDSVEGRFTISRDNSNNMLYLEMNSLRADDTAVYYCARAGRYDDSGYLDYWGQGTLVTVSS VL: EIVMTQSPATLSVSPGERATLSCRASQSVGSKLAWYQHKPGQAPRLLIYGASTRATGIPARFSGSGSGTEFTLTVSSLQSEDFAVYYCQQYNHWYTFGQGTKLEIK ... 4.07e+07

In the following, a different binder is considered.
Q: Form field: reported kon of AB001533 (antibody, V domains shown) VH: QVQLVESGGGVVQPGRSLRLSCAASGFTFNSYGMHWVRQAPGKGLEWVALISFDGTNKFYADSVKGRFTISRDNSKNTLYLQMNSLRAEDTALYHCATDSLFYYDFHLFDYWGQGTLVTVSS VL: DIVLTQTPLSSPVTLGQPASISCRSSQSLVYSDGNTYLNWLQQRPGQPPRLLIYKISNRFSGVPDRFSGSGAGTDFTLKISRVEAEDVGVYYCMQATQLYTFGQGTKLEIK
A: 2.69e+06
